The reported measurements were obtained from BindingDB's records for doi:10.7270/Q26T0K34.

- systemName: Peroxisome proliferator-activated receptor gamma (Homo sapiens, UniProt P37231)
- Sequence (P37231 whole entry, looked up): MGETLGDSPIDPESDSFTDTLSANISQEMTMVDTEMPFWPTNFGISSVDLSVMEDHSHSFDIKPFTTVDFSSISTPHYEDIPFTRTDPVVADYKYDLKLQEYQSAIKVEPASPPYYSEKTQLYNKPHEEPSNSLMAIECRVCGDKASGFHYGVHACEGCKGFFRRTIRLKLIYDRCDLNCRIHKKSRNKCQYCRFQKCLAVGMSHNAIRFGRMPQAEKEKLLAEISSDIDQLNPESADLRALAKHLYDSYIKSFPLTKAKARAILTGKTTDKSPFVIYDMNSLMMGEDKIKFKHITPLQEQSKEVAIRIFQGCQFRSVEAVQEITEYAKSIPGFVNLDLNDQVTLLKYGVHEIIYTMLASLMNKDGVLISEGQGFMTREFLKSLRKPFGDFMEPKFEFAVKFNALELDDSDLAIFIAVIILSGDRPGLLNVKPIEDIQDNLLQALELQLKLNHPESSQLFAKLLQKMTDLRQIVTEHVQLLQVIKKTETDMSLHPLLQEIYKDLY
- procedureDetails: PubChem AID 463257
measureName: IC50 (µM)
Enter your answer as a number in µM; do not include the unit.

### Prompt For COc1ccc(-n2cc(O)c(-c3nc(-c4ccccc4)cs3)c2N)cc1 , write its IC50.
### Response 24.7
